assayProcedure: activity coefficient (dimensionless); of the first substance listed, at infinite dilution; xn = mol fraction of the nth substance listed
experimentalSetup: 368.15 K; 100 kPa; Liquid; Chromatography; x1 = 0
measurementKind: activity coefficient
Give the value as a plain number.

Please review the following examples before continuing.
C=CCCCCCC [oct-1-ene] + CCCC[n+]1ccc(C#N)cc1.O=S(=O)([N-]S(=O)(=O)C(F)(F)F)C(F)(F)F = 24.3
CCC(C)O (configuration not stated) [butan-2-ol] + CCCC[n+]1ccc(C#N)cc1.O=S(=O)([N-]S(=O)(=O)C(F)(F)F)C(F)(F)F = 1.84
c1ccccc1 [benzene] + CCCC[n+]1ccc(C#N)cc1.O=S(=O)([N-]S(=O)(=O)C(F)(F)F)C(F)(F)F = 1.38
CCOC(C)(C)C [2-ethoxy-2-methylpropane] + CCCC[n+]1ccc(C#N)cc1.O=S(=O)([N-]S(=O)(=O)C(F)(F)F)C(F)(F)F = 8.68
C#CCCCCC [1-heptyne] + CCCC[n+]1ccc(C#N)cc1.O=S(=O)([N-]S(=O)(=O)C(F)(F)F)C(F)(F)F = 7.48

Req: # lookup: activity coefficient of CC(C)CC(C)(C)C [2,2,4-trimethylpentane] + CCCC[n+]1ccc(C#N)cc1.O=S(=O)([N-]S(=O)(=O)C(F)(F)F)C(F)(F)F
Resp: 30.7

Req: GET /values?readout=activity coefficient&item= Cc1cccc(C)c1 [1,3-dimethylbenzene] + CCCC[n+]1ccc(C#N)cc1.O=S(=O)([N-]S(=O)(=O)C(F)(F)F)C(F)(F)F
Resp: 2.83

====

assayProcedure: activity coefficient (dimensionless); of the first substance listed, at infinite dilution; xn = mol fraction of the nth substance listed
experimentalSetup: 318.15 K; 100 kPa; Liquid; Chromatography; x1 = 0
So basically: is activity coefficient under 3? Then 1. Not under? Then 0.

Example cases with answers are listed next.
C1COCCO1 [1,4-dioxane] + CCCC[n+]1ccc(C#N)cc1.O=S(=O)([N-]S(=O)(=O)C(F)(F)F)C(F)(F)F = 1
COC(C)(C)C [2-methoxy-2-methylpropane] + CCCC[n+]1ccc(C#N)cc1.O=S(=O)([N-]S(=O)(=O)C(F)(F)F)C(F)(F)F = 0
c1ccncc1 [pyridine] + CCCC[n+]1ccc(C#N)cc1.O=S(=O)([N-]S(=O)(=O)C(F)(F)F)C(F)(F)F = 1
CO [methanol] + CCCC[n+]1ccc(C#N)cc1.O=S(=O)([N-]S(=O)(=O)C(F)(F)F)C(F)(F)F = 1
CCCO [propan-1-ol] + CCCC[n+]1ccc(C#N)cc1.O=S(=O)([N-]S(=O)(=O)C(F)(F)F)C(F)(F)F = 1
CCCCCCC [heptane] + CCCC[n+]1ccc(C#N)cc1.O=S(=O)([N-]S(=O)(=O)C(F)(F)F)C(F)(F)F = 0
CC(C)c1ccccc1 [isopropylbenzene] + CCCC[n+]1ccc(C#N)cc1.O=S(=O)([N-]S(=O)(=O)C(F)(F)F)C(F)(F)F = 0
Cc1cccc(C)c1 [1,3-dimethylbenzene] + CCCC[n+]1ccc(C#N)cc1.O=S(=O)([N-]S(=O)(=O)C(F)(F)F)C(F)(F)F = 1
C=CCCCCC [1-heptene] + CCCC[n+]1ccc(C#N)cc1.O=S(=O)([N-]S(=O)(=O)C(F)(F)F)C(F)(F)F = 0
CC(C)OC(C)C [diisopropyl ether] + CCCC[n+]1ccc(C#N)cc1.O=S(=O)([N-]S(=O)(=O)C(F)(F)F)C(F)(F)F = 0

Req: Say whether its activity coefficient is strictly beneath 3. Entry: C=CCCC [1-pentene] + CCCC[n+]1ccc(C#N)cc1.O=S(=O)([N-]S(=O)(=O)C(F)(F)F)C(F)(F)F
Resp: 0

Req: # TODO verify activity coefficient < 3 strictly for this compound: CCCCCC [hexane] + CCCC[n+]1ccc(C#N)cc1.O=S(=O)([N-]S(=O)(=O)C(F)(F)F)C(F)(F)F
Resp: 0

Req: Lab log: compare recorded activity coefficient with 3; is it strictly lower for CCOC(C)(C)C [2-ethoxy-2-methylpropane] + CCCC[n+]1ccc(C#N)cc1.O=S(=O)([N-]S(=O)(=O)C(F)(F)F)C(F)(F)F ?
Resp: 0
